Experiment: Tmax in Sprague-Dawley rat at 10 mg/kg, po up to 21 hrs
Format: ADME, organism-based
Design: dose 10 mg/kg, route oral
Details: in vivo
Measurement Type: Tmax (min)
# unit: min | format: bare number

# count of solved cases: 3
| Smiles Input | Measured Result |
| --- | --- |
| C[C@@H]1CCCN1CCc1ccc(-c2ccc(S(=O)(=O)NC3CCOCC3)cc2)cc1 | 48 |
| C[C@@H]1CCCN1CCc1ccc(-c2ccc(S(=O)(=O)N3CCOCC3)cc2)cc1 | 102 |
| COCCNS(=O)(=O)c1ccc(-c2ccc(CCN3CCC[C@H]3C)cc2)cc1 | 12 |

Which Tmax value is on record for "CCNS(=O)(=O)c1ccc(-c2ccc(CCN3CCC[C@H]3C)cc2)cc1" ?
30

----------
Biological target: Histamine H3 receptor (Rattus norvegicus)
Assay: Displacement of N-[3H]methylhistamine from histamine H3 receptor in rat cortex membrane
Assay type: cell membranes
Details: read-out: pKi (converted)
Catalogue of Ki readings, one per entry.
# unit: nM | format: bare number

# count of solved cases: 2
| Molecule | Ki [nM] |
| --- | --- |
| C[C@@H]1CCCN1CCc1ccc(-c2ccc(S(=O)(=O)N3CC[C@H](O)C3)cc2)cc1 | 2.45 |
| CCN(CC)S(=O)(=O)c1ccc(-c2ccc(CCN3CCC[C@H]3C)cc2)cc1 | 1.41 |

Which Ki value is on record for "CC(C)NS(=O)(=O)c1cccc(-c2ccc(CCN3CCC[C@H]3C)cc2)c1" ?
7.94

Which Ki value is on record for "CCN(CC)S(=O)(=O)c1cccc(-c2ccc(CCN3CCC[C@H]3C)cc2)c1" ?
16.2

----------
Target: Histamine H3 receptor (Rattus norvegicus, UniProt Q9QYN8)
Sequence (Q9QYN8 whole entry): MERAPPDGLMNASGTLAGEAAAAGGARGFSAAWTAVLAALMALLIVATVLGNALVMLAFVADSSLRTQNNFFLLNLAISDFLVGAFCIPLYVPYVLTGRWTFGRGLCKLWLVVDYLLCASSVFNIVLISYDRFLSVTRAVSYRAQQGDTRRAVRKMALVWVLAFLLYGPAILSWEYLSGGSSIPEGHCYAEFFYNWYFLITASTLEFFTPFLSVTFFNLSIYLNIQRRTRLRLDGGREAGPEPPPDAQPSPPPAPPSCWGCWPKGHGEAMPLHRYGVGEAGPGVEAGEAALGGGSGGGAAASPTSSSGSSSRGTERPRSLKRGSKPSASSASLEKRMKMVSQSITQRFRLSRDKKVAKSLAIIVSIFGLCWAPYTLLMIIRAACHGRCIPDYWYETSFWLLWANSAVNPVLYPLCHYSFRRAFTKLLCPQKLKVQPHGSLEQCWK
Assay: Displacement of N-[3H]methylhistamine from histamine H3 receptor in rat cortex membrane
Format: cell membranes
Details: read-out: Ki
Measurement Type: pKi
When answering, recall that pKi equals minus log10 of the concentration in mol/L, and write that number alone.

# count of solved cases: 2
| Smiles Input | pKi |
| --- | --- |
| C[C@@H]1CCCN1CCc1ccc(-c2ccc(S(=O)(=O)N3CCOCC3)cc2)cc1 | 8.70 |
| C[C@@H]1CCCN1CCc1ccc(-c2ccc(S(=O)(=O)NC3CCOCC3)cc2)cc1 | 8.70 |

Next compound, please.
Which pKi value is on record for "COCCNS(=O)(=O)c1ccc(-c2ccc(CCN3CCC[C@H]3C)cc2)cc1" ?
8.52

----------
Catalogue of concentration at 0.5 h readings, one per entry.
Test: Plasma concentration in Sprague-Dawley rat at 10 mg/kg, po after 0.5 hrs
Type: ADME, organism-based
Design: dose 10 mg/kg, route oral
# unit: ng/mL | format: bare number

Which concentration at 0.5 h value is on record for "C[C@@H]1CCCN1CCc1ccc(-c2ccc(S(=O)(=O)NC3CCOCC3)cc2)cc1" ?
440

Which concentration at 0.5 h value is on record for "C[C@@H]1CCCN1CCc1ccc(-c2ccc(S(=O)(=O)N3CCOCC3)cc2)cc1" ?
160

Which concentration at 0.5 h value is on record for "COCCNS(=O)(=O)c1ccc(-c2ccc(CCN3CCC[C@H]3C)cc2)cc1" ?
11200

Which concentration at 0.5 h value is on record for "CCNS(=O)(=O)c1ccc(-c2ccc(CCN3CCC[C@H]3C)cc2)cc1" ?
1600
